For each record, write down the corresponding GI50.
system: HCT-15

Examples with their reported GI50 follow.
[[record]]
molecule = "CC(=O)OC/C=C(/CCl)CCC(Br)C(C)(C)Br.CC(=O)OC/C=C(\\CCl)CCC(Br)C(C)(C)Br (stereo not given)"
result = "> 10 µM"

[[record]]
molecule = "Cc1ccccc1C(=O)Oc1ccc(OCc2ccccc2)cc1"
result = "38.6 µM"

[[record]]
molecule = "COC(=O)C#Cc1ccc([N+](=O)[O-])cc1"
result = "0.502 µM"

[[record]]
molecule = "CO/N=C(\\C)c1ccc(Nc2c3ccccc3nc3occc23)cc1"
result = "0.191 µM"


Give me GI50 for each of these molecules, listed below.
1. C=CCNC(=O)CN(CC(=O)OC)C1CCCCC1N(CC(=O)OC)CC(=O)OC (stereo not given)
2. C[C@@]1(O)C2CC3CC1(c1ccccc1)CC(/C3=N/O)/C2=N\O (stereo not given in full)
3. CN(C(=O)Cc1ccc(Cl)c(Cl)c1)[C@H]1CCCC[C@@H]1[N+]1(C)CCCC1
4. Cc1cccc(C)c1NC(=O)/C=C/c1ccccc1
5. S=c1nc(Nc2ccc(Cl)cc2)c2c3c(sc2[nH]1)CCCC3
6. CCC1(c2ccc(N3C(=O)c4cc(OC)c(OC)cc4C3=O)cc2)CCC(=O)NC1=O (stereo not given)

Solution:
> 100 µM
> 100 µM
> 100 µM
> 100 µM
> 100 µM
> 10 µM

* * *

system: M14; assay: NCI tumour cell line growth inhibition, 48 h
Activity calls are given as the source filed them. Cut-off read from the data, not from the text of the source: active = GI50 up to about 1.1 µM and inactive = higher.
Result category, one only: active, inactive

# example entries with known answers
[[record]]
compound = "C/C(=C\\CBr)CCC(Br)C(C)(C)Cl (stereo not given)"
label_value = "inactive"

[[record]]
compound = "CCN(CC)P1(=S)Oc2ccc3ccccc3c2-c2c(ccc3ccccc23)O1"
label_value = "inactive"

[[record]]
compound = "CC1=NN(c2cccc(Cl)c2)C2(C1=Cc1cccs1)C(Cl)C(=O)N2c1nc2ccccc2s1 (stereo not given)"
label_value = "inactive"

[[record]]
compound = "CCOC(=O)C12C(=O)CCN1CCc1ccccc1C2C (stereo not given)"
label_value = "inactive"

[[record]]
compound = "COc1cc(O)c2c(=O)c3c(C)cccc3n(C)c2c1"
label_value = "inactive"

[[record]]
compound = "CN(Cc1cnc2nc(N)nc(N)c2n1)c1ccc(C(=O)NC23CC4CC(CC(C4)C2)C3)cc1"
label_value = "inactive"


Here is the next item to consider.
Problem: Write down the call the test reported for this compound. Item: CC(C)CCc1n[nH]c(=O)n1/N=C\c1ccccc1
Solution: inactive

* * *

// GI50 collected for HCT-15
One number for each entry, in µM.

[[record]]
compound = "CN(CCCNC(=O)c1cc(-c2ccccc2)nc2ccccc12)CCCNC(=O)c1cc(-c2ccccc2)nc2ccccc12"
number = 4

[[record]]
compound = "NC1=C(Br)C(=O)c2ncccc2C1=O"
number = 0.352

[[record]]
compound = "CCCCC(=O)OC[n+]1cccc(-c2c(COC(=O)NC(C)C)c(COC(=O)NC(C)C)c3n2CCC3)c1"
number = 53.3


Quick request: GI50 for each listed item, please.
1. CC1(c2ccc(Cl)cc2)CC(c2ccc(Cl)cc2)=C(C#N)C(=C(C#N)C#N)N1 (stereo not drawn)
2. O=C(CCCCCCCCC(=O)N1C(=O)CC(=O)N(c2cccc(Cl)c2)C1=S)N1C(=O)CC(=O)N(c2cccc(Cl)c2)C1=S
3. C=C1C(=O)OC2CCCCC3OC3C12 (stereo not drawn)
4. O=C(N/N=C/c1cc(Cl)cc(Cl)c1O)c1ccccc1O
5. O=c1c(Cl)c(Cl)c(=O)c2sc3cc(Cl)ccc3[nH]c1=2

Solution:
[15.8, 43.5, 6.9, 0.46, 42.3]

Entry source: ChEMBL document CHEMBL1201862
